Tested on: ATP phosphoribosyltransferase (HisG)
run_description: Degree of inhibition by L-histidine on activities of ATP phosphoribosyltransferase variants
Format: biochemical, Corynebacterium glutamicum
reported_conditions: L-histidine 0 mM
quantity_measured: Activity of Enzyme, 0 mM L-histidine (U/mg)

INSERT INTO results (molecule, meas_value) VALUES
  ('HisG: wild-type Corynebacterium glutamicum ATP phosphoribosyltransferase, SEQ ID NO: 13 (protein, HisG) MLKIAVPNKGSLSERAMEILAEAGYAGRGDSKSLNVFDEANNVEFFFLRPKDIAIYVAGGQLDLGITGRDLARDSQADVHEVLSLGFGSSTFRYAAPADEEWSIEKLDGKRIATSYPNLVRDDLAARGLSAEVLRLDGAVEVSIKLGVADAIADVVSTGRTLRQQGLAPFGEVLCTSEAVIVGRKDEKVTPEQQILLRRIQGILHAQNFLMLDYNVDRDNLDAATAVTPGLSGPTVSPLARDNWVAVRAMVPRRSANAIMDKLAGLGAEAILASEIRIARI', 0.013),
  ('HisG (N215R/G233H/T235Q): ATP phosphoribosyltransferase variant N215R/G233H/T235Q, SEQ ID NO: 1 (protein, HisG) MLKIAVPNKGSLSERAMEILAEAGYAGRGDSKSLNVFDEANNVEFFFLRPKDIAIYVAGGQLDLGITGRDLARDSQADVHEVLSLGFGSSTFRYAAPADEEWSIEKLDGKRIATSYPNLVRDDLAARGLSAEVLRLDGAVEVSIKLGVADAIADVVSTGRTLRQQGLAPFGEVLCTSEAVIVGRKDEKVTPEQQILLRRIQGILHAQNFLMLDYRVDRDNLDAATAVTPGLSHPQVSPLARDNWVAVRAMVPRRSANAIMDKLAGLGAEAILASEIRIARI', 2.082),
  ('HisG (N215K/G233H/T235Q): ATP phosphoribosyltransferase variant N215K/G233H/T235Q (protein) MLKIAVPNKGSLSERAMEILAEAGYAGRGDSKSLNVFDEANNVEFFFLRPKDIAIYVAGGQLDLGITGRDLARDSQADVHEVLSLGFGSSTFRYAAPADEEWSIEKLDGKRIATSYPNLVRDDLAARGLSAEVLRLDGAVEVSIKLGVADAIADVVSTGRTLRQQGLAPFGEVLCTSEAVIVGRKDEKVTPEQQILLRRIQGILHAQNFLMLDYKVDRDNLDAATAVTPGLSHPQVSPLARDNWVAVRAMVPRRSANAIMDKLAGLGAEAILASEIRIARI', 1.3),
  ('HisG (G233H/T235Q): ATP phosphoribosyltransferase variant with G233H and T235Q substitutions (protein) MLKIAVPNKGSLSERAMEILAEAGYAGRGDSKSLNVFDEANNVEFFFLRPKDIAIYVAGGQLDLGITGRDLARDSQADVHEVLSLGFGSSTFRYAAPADEEWSIEKLDGKRIATSYPNLVRDDLAARGLSAEVLRLDGAVEVSIKLGVADAIADVVSTGRTLRQQGLAPFGEVLCTSEAVIVGRKDEKVTPEQQILLRRIQGILHAQNFLMLDYNVDRDNLDAATAVTPGLSHPQVSPLARDNWVAVRAMVPRRSANAIMDKLAGLGAEAILASEIRIARI', 1.381);
